List of Km values.
Substrate: [O]=[Cr](=[O])([OH])[OH]
Protocol notes: purified protein
Test conditions: 100 µM NADH, 5 µM enzyme, 50 mM Tris-HCl, 100 mM NaCl, pH 7.4, 37°C, aerobic
State just the number; it will be interpreted in µM.

# annotated cases, reported Km shown
- Gh-ChrR (Novacetimonas hansenii ATCC 23769; S118A) (protein) MTTTSPLHFVTLLGSLRKASFNAAVARALPEIAPEGIAITPLGSIGTFPHYSQDVQEEGFPAPVLTMAQQIATADAVVIVTPEYNYSVPGVLKNAIDWLSRVSPQPLAGKPVALVTAAPGMIGGARAQYHLRQSLVFLDAYVLNRPEAMIGQVTGKVDAQTLELSDVATREFLARQLDALAALARTLSPRAIT: 600
- Gh-ChrR (Novacetimonas hansenii ATCC 23769; R101A) (protein) MTTTSPLHFVTLLGSLRKASFNAAVARALPEIAPEGIAITPLGSIGTFPHYSQDVQEEGFPAPVLTMAQQIATADAVVIVTPEYNYSVPGVLKNAIDWLSAVSPQPLAGKPVALVTASPGMIGGARAQYHLRQSLVFLDAYVLNRPEAMIGQVTGKVDAQTLELSDVATREFLARQLDALAALARTLSPRAIT: 1900
- Gh-ChrR (Novacetimonas hansenii ATCC 23769; N85A) (protein) MTTTSPLHFVTLLGSLRKASFNAAVARALPEIAPEGIAITPLGSIGTFPHYSQDVQEEGFPAPVLTMAQQIATADAVVIVTPEYAYSVPGVLKNAIDWLSRVSPQPLAGKPVALVTASPGMIGGARAQYHLRQSLVFLDAYVLNRPEAMIGQVTGKVDAQTLELSDVATREFLARQLDALAALARTLSPRAIT: 600

Value of Km reported for the protein Gluconacetobacter hansenii chromate reductase (Gh-ChrR) (enzyme, Gluconacetobacter hansenii ATCC 23769, Gh-ChrR, NAD(P)H-dependent FMN reductase from Gluconacetobacter hansenii ATCC 23769 (ZP_06834583); 193 native residues; codon-optimised synthetic gene in pJexpress411; Monomer 21.3 kDa (193 native residues plus a six-residue C-terminal poly-histidine tag); In the crystal 5-6 N-terminal and 7-9 C-terminal residues are not seen; also called putative chromate reductase; source: E. coli BL21(DE3), …) MTTTSPLHFVTLLGSLRKASFNAAVARALPEIAPEGIAITPLGSIGTFPHYSQDVQEEGFPAPVLTMAQQIATADAVVIVTPEYNYSVPGVLKNAIDWLSRVSPQPLAGKPVALVTASPGMIGGARAQYHLRQSLVFLDAYVLNRPEAMIGQVTGKVDAQTLELSDVATREFLARQLDALAALARTLSPRAIT is 240
